# assay_details: Octanol-water partition coefficient, log P by shake flask method
# Format: physicochemical
measure: logP
Number only, please.

# molecule COc1ccc(Cl)cc1-n1ncc(-c2nnc(-c3cccc(F)c3)o2)c1C ; its logP = 4.28

Kindly note the recorded logP for COc1ccc(Cl)cc1-n1ncc(-c2nnc(-c3ccc(F)cc3)o2)c1C , which is 4.26

The reported logP of the molecule COc1ccc(Cl)cc1-n1ncc(-c2nnc(-c3cc(Cl)cc(Cl)c3)o2)c1C was 5.61

The value of logP measured for the molecule COc1ccc(Cl)cc1-n1ncc(-c2nnc(-c3ccc(Cl)cc3)o2)c1C turned out to be 4.51

So, COc1ccc(Cl)cc1-n1ncc(-c2nnc(-c3ccccc3)o2)c1C ? Its logP was 4.32

For COc1ccc(Cl)cc1-n1ncc(-c2nnc(-c3ccc(C)c([N+](=O)[O-])c3)o2)c1C the molecule record lists logP as 6.42

For COc1ccc(Cl)cc1-n1ncc(-c2nnc(-c3ccc(C)c(Br)c3)o2)c1C the molecule record lists logP as 5.19

logP measured on COc1ccc(Cl)cc1-n1ncc(-c2nnc(-c3ccc(Cl)c(Cl)c3)o2)c1C = 5.57

The recorded logP for COc1ccc(Cl)cc1-n1ncc(-c2nnc(-c3ccc(Br)cc3)o2)c1C is 4.88

For reference, reported logP for COc1ccc(Cl)cc1-n1ncc(-c2nnc(-c3ccc(Br)c(C)c3)o2)c1C stands at 5.2
